biological target: integrin α5β1 (Homo sapiens, UniProt P05556+P08648); construct: Soluble integrin α5β1 (1.0 μg/ml) (R&D Systems, MN, USA); assay: competitive solid-phase binding ELISA (soluble integrin α5β1 vs coated fibronectin); details: fibronectin-coated plate, soluble integrin α5β1 1.0 μg/ml; read-out: IC50 for competing with fibronectin bound on integrin α5β1
IC50: recorded values
VALUE KIND: IC50 (nM)

COMPOUND	UNITS OF MEASURE	RECORDED VALUE
CC(C)=CCc1c(O)cc(O)c2c1O[C@H](c1ccc(O)cc1)CC2=O [8-prenylnaringenin]	nM	7.6
CC(C)=CCc1c(O)cc(O)c2c(=O)c(-c3ccc(O)cc3)coc12 [8-prenylgenistein]	nM	390
